# mass density per record follows
- settings: 298.15 K; 101.33 kPa; Liquid; Vibrating tube method

smiles text	mass density / kg/m3
Cc1ccccc1C	875.51
Cc1cccc(C)c1	859.98
Cc1ccc(C)cc1	856.63
Cc1ccccc1	862.18

---

# viscosity per record follows
- settings: 288.15 K; 101.33 kPa; Liquid; Concentric cylinders viscometry
± gives the expanded uncertainty stated by the source.

smiles text	viscosity
Cc1ccccc1C	0.869 ± 0.019 mPa·s
Cc1ccc(C)cc1	0.6862 ± 0.015 mPa·s
Cc1cccc(C)c1	0.6601 ± 0.015 mPa·s
Cc1ccccc1	0.6284 ± 0.014 mPa·s

---

- settings: 328.15 K; 101.33 kPa; Liquid; Vibrating tube method
# mass density per record follows

compound	mass density, kg/m3
Cc1ccccc1 [toluene]	834
Cc1cccc(C)c1 [1,3-dimethylbenzene]	833.95
Cc1ccc(C)cc1 [1,4-dimethylbenzene]	830.32
Cc1ccccc1C [1,2-dimethylbenzene]	850.01

---

- protocol summary: refractive index (Na D-line) (dimensionless)
- settings: 303.15 K; 101.33 kPa; Liquid; Standard Abbe refractometry
# refractive index per record follows
test readout: refractive index

smiles text	test readout	experimental result
Cc1cccc(C)c1	refractive index	1.49074
Cc1ccc(C)cc1	refractive index	1.48939
Cc1ccccc1C	refractive index	1.49906
Cc1ccccc1	refractive index	1.49042

---

# refractive index per record follows
- protocol summary: refractive index (Na D-line) (dimensionless)
- settings: 323.15 K; 101.33 kPa; Liquid; Standard Abbe refractometry

smiles text	refractive index
Cc1cccc(C)c1	1.48017
Cc1ccc(C)cc1	1.47853
Cc1ccccc1	1.47889
Cc1ccccc1C	1.48869

---

- protocol summary: refractive index (Na D-line) (dimensionless)
- settings: 313.15 K; 101.33 kPa; Liquid; Standard Abbe refractometry

compound	refractive index
Cc1ccc(C)cc1 [1,4-dimethylbenzene]	1.48391
Cc1ccccc1C [1,2-dimethylbenzene]	1.49383
Cc1cccc(C)c1 [1,3-dimethylbenzene]	1.48545
Cc1ccccc1 [toluene]	1.48461

---

- protocol summary: refractive index (Na D-line) (dimensionless)
- settings: 298.15 K; 101.33 kPa; Liquid; Standard Abbe refractometry

smiles text	refractive index
Cc1cccc(C)c1	1.49339
Cc1ccc(C)cc1	1.49221
Cc1ccccc1C	1.50173
Cc1ccccc1	1.49338

---

- protocol summary: refractive index (Na D-line) (dimensionless)
- settings: 328.15 K; 101.33 kPa; Liquid; Standard Abbe refractometry
# refractive index per record follows

smiles text	refractive index
Cc1cccc(C)c1	1.47757
Cc1ccc(C)cc1	1.47608
Cc1ccccc1C	1.48604
Cc1ccccc1	1.47596

---

- settings: 318.15 K; 101.33 kPa; Liquid; Concentric cylinders viscometry
Numbers after ± are expanded uncertainties.
test readout: viscosity

compound	test readout	experimental result
Cc1ccccc1C [1,2-dimethylbenzene]	viscosity	0.608 ± 0.014 mPa·s
Cc1ccc(C)cc1 [1,4-dimethylbenzene]	viscosity	0.5001 ± 0.011 mPa·s
Cc1cccc(C)c1 [1,3-dimethylbenzene]	viscosity	0.4888 ± 0.011 mPa·s
Cc1ccccc1 [toluene]	viscosity	0.4646 ± 0.01 mPa·s

---

- settings: 303.15 K; 101.33 kPa; Liquid; Vibrating tube method
test readout: mass density (kg/m3)

smiles text	test readout	experimental result
Cc1cccc(C)c1	mass density	855.68
Cc1ccccc1	mass density	857.51
Cc1ccc(C)cc1	mass density	852.27
Cc1ccccc1C	mass density	871.3

---

- protocol summary: refractive index (Na D-line) (dimensionless)
- settings: 293.15 K; 101.33 kPa; Liquid; Standard Abbe refractometry
# refractive index per record follows
test readout: refractive index

smiles text	experimental result
Cc1ccc(C)cc1	1.49493
Cc1ccccc1	1.49631
Cc1ccccc1C	1.5044
Cc1cccc(C)c1	1.49604

---

- settings: 313.15 K; 101.33 kPa; Liquid; Vibrating tube method
Numbers after ± are expanded uncertainties.
# mass density per record follows

compound	mass density
Cc1ccccc1C [1,2-dimethylbenzene]	862.83 ± 1 kg/m3
Cc1ccccc1 [toluene]	848.15 ± 1 kg/m3
Cc1ccc(C)cc1 [1,4-dimethylbenzene]	843.53 ± 1 kg/m3
Cc1cccc(C)c1 [1,3-dimethylbenzene]	847.03 ± 1 kg/m3

---

# mass density per record follows
- settings: 308.15 K; 101.33 kPa; Liquid; Vibrating tube method
test readout: mass density (kg/m3)

smiles text	experimental result
Cc1ccccc1	852.83
Cc1ccccc1C	867.07
Cc1ccc(C)cc1	847.91
Cc1cccc(C)c1	851.36

---

- settings: 303.15 K; 101.33 kPa; Liquid; Concentric cylinders viscometry
# viscosity per record follows
test readout: viscosity (mPa·s)

smiles text	experimental result
Cc1ccc(C)cc1	0.5848
Cc1cccc(C)c1	0.5674
Cc1ccccc1	0.541
Cc1ccccc1C	0.722

---

# viscosity per record follows
- settings: 313.15 K; 101.33 kPa; Liquid; Concentric cylinders viscometry
test readout: viscosity (mPa·s)

smiles text	test readout	measurement unit	experimental result
Cc1cccc(C)c1	viscosity	mPa·s	0.5112
Cc1ccc(C)cc1	viscosity	mPa·s	0.5247
Cc1ccccc1	viscosity	mPa·s	0.4854
Cc1ccccc1C	viscosity	mPa·s	0.6437

---

- settings: 328.15 K; 101.33 kPa; Liquid; Concentric cylinders viscometry
# viscosity per record follows

smiles text	viscosity / mPa·s
Cc1ccc(C)cc1	0.4521
Cc1cccc(C)c1	0.4439
Cc1ccccc1	0.4209
Cc1ccccc1C	0.5458

---

- protocol summary: refractive index (Na D-line) (dimensionless)
- settings: 333.15 K; 101.33 kPa; Liquid; Standard Abbe refractometry
± gives the expanded uncertainty stated by the source.
# refractive index per record follows
test readout: refractive index

smiles text	test readout	experimental result
Cc1ccc(C)cc1	refractive index	1.47328 ± 0.0004
Cc1ccccc1C	refractive index	1.48345 ± 0.0004
Cc1cccc(C)c1	refractive index	1.47489 ± 0.0004
Cc1ccccc1	refractive index	1.47305 ± 0.00036

---

# refractive index per record follows
- protocol summary: refractive index (Na D-line) (dimensionless)
- settings: 308.15 K; 101.33 kPa; Liquid; Standard Abbe refractometry
Numbers after ± are expanded uncertainties.
test readout: refractive index

smiles text	experimental result
Cc1ccccc1	1.48751 ± 0.00036
Cc1ccccc1C	1.49644 ± 0.0004
Cc1ccc(C)cc1	1.48658 ± 0.0004
Cc1cccc(C)c1	1.4881 ± 0.0004

---

# viscosity per record follows
- settings: 333.15 K; 101.33 kPa; Liquid; Concentric cylinders viscometry
± gives the expanded uncertainty stated by the source.

compound	viscosity
Cc1ccccc1 [toluene]	0.4035 ± 0.0094 mPa·s
Cc1cccc(C)c1 [1,3-dimethylbenzene]	0.4273 ± 0.01 mPa·s
Cc1ccc(C)cc1 [1,4-dimethylbenzene]	0.4342 ± 0.01 mPa·s
Cc1ccccc1C [1,2-dimethylbenzene]	0.5221 ± 0.012 mPa·s

---

- settings: 318.15 K; 101.33 kPa; Liquid; Vibrating tube method
# mass density per record follows
test readout: mass density (kg/m3)

smiles text	test readout	experimental result
Cc1ccccc1	mass density	843.44
Cc1ccccc1C	mass density	858.57
Cc1cccc(C)c1	mass density	842.69
Cc1ccc(C)cc1	mass density	839.14

---

# viscosity per record follows
- settings: 298.15 K; 101.33 kPa; Liquid; Concentric cylinders viscometry

molecule	viscosity [mPa·s]
Cc1ccccc1 [toluene]	0.5698
Cc1ccc(C)cc1 [1,4-dimethylbenzene]	0.6168
Cc1ccccc1C [1,2-dimethylbenzene]	0.7661
Cc1cccc(C)c1 [1,3-dimethylbenzene]	0.5969

---

- settings: 308.15 K; 101.33 kPa; Liquid; Concentric cylinders viscometry

smiles text	viscosity / mPa·s
Cc1ccc(C)cc1	0.5548
Cc1cccc(C)c1	0.5396
Cc1ccccc1	0.514
Cc1ccccc1C	0.6809

---

- settings: 323.15 K; 101.33 kPa; Liquid; Vibrating tube method
# mass density per record follows

smiles text	mass density [kg/m3]
Cc1ccc(C)cc1	834.74
Cc1ccccc1C	854.3
Cc1cccc(C)c1	838.33
Cc1ccccc1	838.73

---

# mass density per record follows
- settings: 288.15 K; 101.33 kPa; Liquid; Vibrating tube method
test readout: mass density (kg/m3)

smiles text	measurement unit	experimental result
Cc1ccccc1C	kg/m3	883.91
Cc1ccc(C)cc1	kg/m3	865.31
Cc1ccccc1	kg/m3	871.5
Cc1cccc(C)c1	kg/m3	868.56

---

# refractive index per record follows
- protocol summary: refractive index (Na D-line) (dimensionless)
- settings: 288.15 K; 101.33 kPa; Liquid; Standard Abbe refractometry
Numbers after ± are expanded uncertainties.
test readout: refractive index

molecule	test readout	experimental result
Cc1ccc(C)cc1 [1,4-dimethylbenzene]	refractive index	1.4977 ± 0.0004
Cc1ccccc1 [toluene]	refractive index	1.49921 ± 0.00036
Cc1ccccc1C [1,2-dimethylbenzene]	refractive index	1.50706 ± 0.0004
Cc1cccc(C)c1 [1,3-dimethylbenzene]	refractive index	1.49868 ± 0.0004

Hey, just so you know, these numbers are from the NIST ThermoML archive (doi:10.1016/j.jct.2018.11.020).
